# assay_name: qHTS assay for small molecule antagonists of peroxisome proliferator-activated receptor delta signaling (AID 588535);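 further: cells co-treated with a PPAR-delta agonist as stimulator during compound exposure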
# stated_conditions: HEK293T PPARd-UAS-bla, beta-lactamase FRET ratio, 18 h; 460 nm channel
Inconclusive results are not listed.
Entries whose max response is below -20% take TRUE; entries at or above -20% take FALSE.

[[record]]
compound = "O=C1CCC(N2C(=O)c3ccccc3C2=O)C(=O)N1 (stereo unspecified)"
category = "FALSE"

[[record]]
compound = "O=NN(CCCl)C(=O)NCCCl"
category = "FALSE"

[[record]]
compound = "NC[C@H](O)c1ccc(O)c(O)c1"
category = "FALSE"

[[record]]
compound = "C[C@]12CCC(=O)C=C1CC[C@@H]1[C@@H]2[C@@H](O)C[C@@]2(C)[C@H]1CC[C@]2(O)C(=O)CO"
category = "FALSE"

[[record]]
compound = "NS(=O)(=O)c1cc2c(cc1Cl)NC=NS2(=O)=O"
category = "TRUE"

[[record]]
compound = "Cc1ccccc1C(OCCN(C)C)c1ccccc1 (stereo unspecified)"
category = "FALSE"


* * *

# Test system: Dd2
# assay_name: qHTS profiling for inhibitors of Plasmodium falciparum proliferation (AID 504749); further: nearly all actives have a fitted effect of over 60% in size
# stated_conditions: P. falciparum in erythrocytes, SYBR Green DNA, 72 h; series mostly up to 28.7 µM
Records with an inconclusive call do not appear. Activity calls are given as the source filed them. The call rests on the fitted dose curve; in most records, active means well fitted inhibition curve with a large enough effect; inconclusive means small, poorly fitted or top-dose-only effect; inactive means flat fitted curve, though single readings scatter.
Labels: 1 = active, -1 = inactive

[[record]]
compound = "NC(=O)c1cnccn1"
category = -1

[[record]]
compound = "CC(=O)Oc1ccccc1C(=O)O"
category = -1

[[record]]
compound = "CN1CCN(CCCN2c3ccccc3Sc3ccc(C(F)(F)F)cc32)CC1"
category = 1

[[record]]
compound = "N[C@@H]1CONC1=O"
category = -1

[[record]]
compound = "Cc1ccccc1C(OCCN(C)C)c1ccccc1 (stereo not drawn)"
category = -1

[[record]]
compound = "Oc1ccc(C2CNCCc3c2cc(O)c(O)c3Cl)cc1 (stereo not drawn)"
category = -1

[[record]]
compound = "O=c1n(CCCN2CCN(c3cccc(Cl)c3)CC2)nc2ccccn12"
category = -1

[[record]]
compound = "NNCCc1ccccc1"
category = -1

[[record]]
compound = "CC(C)C[C@H](NC(=O)[C@@H](O)[C@H](N)Cc1ccccc1)C(=O)O"
category = 1

[[record]]
compound = "NS(=O)(=O)c1cc2c(cc1Cl)NC=NS2(=O)=O"
category = -1

[[record]]
compound = "N=c1nc(N2CCCCC2)cc(N)n1O"
category = -1

[[record]]
compound = "CCc1ccc(CCOc2ccc(CC3SC(=O)NC3=O)cc2)nc1 (stereo not drawn)"
category = -1

[[record]]
compound = "Cc1[nH]c(=O)c(C#N)cc1-c1ccncc1"
category = -1


* * *

# assay_name: Quantitative High-Throughput drug screen in 47 multiple myeloma cell lines against the NCATS MIPE library collection: JIM3_ECACC cell viability assay (AID 1918963; further: nearly all actives have a fitted effect of over 35% in size)
# stated_conditions: JIM3 myeloma viability, CellTiter-Glo ATP, 48 h; series mostly up to 45.8 µM
# Description: PI: Beverly A. Mock Ph.D. Laboratory of Cancer Biology and Genetics, Center for Cancer Research, National Cancer Institute, National Institute of Health, Bethesda, Maryland […] 5; Detector; 425V; Luminescence; Viewlux PerkinElmer. […] 1. […] Briefly, the corresponding myeloma cell lines were screened in 1,536-well plates with 500 cells, 5-uL per well for inhibition of cell viability (assessed by measuring ATP levels with CellTiterGlo). […]
Inconclusive results are not listed. Activity calls are given as the source filed them. Calls follow the shape of the dose curve; as a rule, active = well fitted cell-killing curve with a large enough effect; inconclusive = small, poorly fitted or top-dose-only effect; inactive = no such curve, though single readings can be large or run the other way.
Labels: 1.0 for active, 0.0 for inactive

[[record]]
molecule = "OCCn1cc(-c2cnc3nnn(Cc4ccc5ncccc5c4)c3n2)cn1"
category = 0.0

[[record]]
molecule = "CC(=O)NC(C)c1ccc(Oc2ccc(OC(C)C)cc2)cc1 (stereo unspecified)"
category = 1.0

[[record]]
molecule = "CCCn1c(=O)c2[nH]c(C34CC5CC3C[C@@H](C5)C4)nc2n(CCC)c1=O"
category = 0.0

[[record]]
molecule = "NC(N)=NC(=O)c1nc(Cl)c(N)nc1N"
category = 0.0

[[record]]
molecule = "N=c1nc(N2CCCCC2)cc(N)n1O"
category = 0.0

[[record]]
molecule = "O=C1CCc2cc(OCCCCc3nnnn3C3CCCCC3)ccc2N1"
category = 0.0

